# assay_system: T1, MHC class I molecule B*0702 (biotin (bound to streptavidin-coated plate))
# T1 construct: iTopia monomer stripped of placeholder peptide and b2M, then reconstituted with test peptide and fresh b2M; also called B7; HLA-B7
# assay_text: iTopia peptide binding assay
Listed below: binding, % of positive control peptide values for each entry.

{"binder": "ADMVTWLKE [5T4 9-mer peptide 152 (ADMVTWLKE)]", "binding, % of positive control peptide": "8 % of positive control"}
{"binder": "PHIRVFLDN [5T4 9-mer peptide 143 (PHIRVFLDN)]", "binding, % of positive control peptide": "10 % of positive control"}
{"binder": "LTCAYPEKM [5T4 9-mer peptide 161 (LTCAYPEKM)]", "binding, % of positive control peptide": "6 % of positive control"}
{"binder": "DNALKVLHN [5T4 9-mer peptide 134 (DNALKVLHN)]", "binding, % of positive control peptide": "0 % of positive control"}
{"binder": "RDHMEGYHY [5T4 9-mer peptide 197 (RDHMEGYHY)]", "binding, % of positive control peptide": "5 % of positive control"}
{"binder": "LTYVSFRNL [5T4 9-mer peptide 125 (LTYVSFRNL)]", "binding, % of positive control peptide": "58 % of positive control"}
{"binder": "GAIFLLVLY [5T4 9-mer peptide 184 (GAIFLLVLY)]", "binding, % of positive control peptide": "0 % of positive control"}
{"binder": "NGTLAELQG [5T4 9-mer peptide 138 (NGTLAELQG)]", "binding, % of positive control peptide": "0 % of positive control"}
